Tested on: Escherichia coli (ATCC25922) or Staphylococcus aureus (ATCC25923)
Test: Antibacterial MIC, microdilution method in Mueller-Hinton medium
Format: cell-based
Conditions: Escherichia coli, 18 h, read-out: Potency (MIC)
As shown below, each of these compounds has a reported MIC value.

{"SMILES REPR": "CC(=O)c1ccc(Nc2nc(N(CCN)CCN)nc(N3C[C@H](N)C[C@H](N)C3)n2)cc1", "MIC": "< 64 µg/mL"}
{"SMILES REPR": "N[C@@H]1C[C@H](N)CN(c2nc(Nc3ccc(C(=O)Nc4ccccc4F)c(O)c3)nc(N3C[C@H](N)C[C@H](N)C3)n2)C1", "MIC": "< 64 µg/mL"}
{"SMILES REPR": "N[C@@H]1C[C@H](N)CN(c2nc(Nc3ccc(S(=O)(=O)Nc4ccc5cn[nH]c5c4)cc3)nc(N3C[C@@H](O)[C@@H](O)C3)n2)C1", "MIC": "> 64 µg/mL"}
{"SMILES REPR": "NC[C@@H]1C[C@H](CN)CN(c2nc(Nc3ccc4c(c3)-c3ccccc3C4=O)nc(N3C[C@H](N)C[C@H](N)C3)n2)C1", "MIC": "< 64 µg/mL"}
{"SMILES REPR": "N[C@@H]1C[C@H](N)CN(c2nc(Nc3cccc(NC(=O)c4ccc(O)cc4O)c3)nc(N3C[C@H](N)C[C@H](N)C3)n2)C1", "MIC": "< 16 µg/mL"}
{"SMILES REPR": "N[C@@H]1C[C@H](N)CN(c2nc(Nc3ccc(NC(=O)c4ccc(F)cc4O)cc3)nc(N3C[C@H](N)C[C@H](N)C3)n2)C1", "MIC": "< 16 µg/mL"}

As a next step, examine the compound that follows.
Ask: MIC lookup needed for Cc1ccc(S(=O)(=O)N(Cc2ccccc2)c2ccc(Nc3nc(N4C[C@H](N)C[C@H](N)C4)nc(N4C[C@@H](N)C[C@H]4CO)n3)cc2O)cc1 , thanks.
Result: < 64 µg/mL

* * *

Reported MIC values follow for various compounds
System: Escherichia coli (ATCC25922) or Staphylococcus aureus (ATCC25923)
Test: Antibacterial MIC, microdilution method in Mueller-Hinton medium
Type: cell-based
Details: Escherichia coli, 18 h, read-out: Potency (MIC)
Description: The antibacterial activity of the Formula I compounds was evaluated against standard bacterial strains by determining the minimal inhibitory concentration (MIC) to block growth. Each drug was assayed by the microdilution method in Mueller-Hinton medium, as recommended by the National Committee for Clinical Laboratory Standards. […] The MIC was determined as the lowest concentration of each compound that prevented bacterial growth after 18 hours of incubation at 35° C. […]

Completed entries (count: 6):
{"SMILES REPR": "CC(C)c1cc(C(=O)Nc2ccc(Nc3nc(N4C[C@H](N)C[C@H](N)C4)nc(N4C[C@H](N)C[C@H](N)C4)n3)cc2)c(O)c(C(C)C)c1", "MIC": "< 16 µg/mL"}
{"SMILES REPR": "N[C@@H]1C[C@H](N)CN(c2nc(Nc3ccc(C(=O)CC(=O)Nc4ccc(F)c(Cl)c4)cc3)nc(N3C[C@H](N)C[C@H](N)C3)n2)C1", "MIC": "< 16 µg/mL"}
{"SMILES REPR": "N[C@@H]1C[C@H](N)CN(c2nc(Nc3ccc(C(=O)N4CCc5cc(Br)ccc54)c(O)c3)nc(N3C[C@H](N)C[C@H](N)C3)n2)C1", "MIC": "< 16 µg/mL"}
{"SMILES REPR": "NCCNc1nc(Nc2ccc(NC(=O)c3ccc4ccccc4c3O)cc2)nc(N2C[C@H](N)C[C@H](N)C2)n1", "MIC": "< 16 µg/mL"}
{"SMILES REPR": "COc1ccc(NC(=O)c2cccc(O)c2O)c(Nc2nc(N3C[C@H](N)C[C@H](N)C3)nc(N3C[C@H](N)C[C@H](N)C3)n2)c1", "MIC": "> 64 µg/mL"}
{"SMILES REPR": "N[C@@H]1C[C@H](N)CN(c2nc(Nc3ccc(C(=O)NCc4ccc5c(c4)OCO5)c(O)c3)nc(N3C[C@H](N)C[C@H](N)C3)n2)C1", "MIC": "< 64 µg/mL"}

Consider the record given below.
Ask: Given the entry N[C@@H]1C[C@H](N)CN(c2nc(Nc3ccc(C(=O)Nc4ccc5c(c4)OC(F)(F)O5)c(O)c3)nc(N3C[C@H](N)C[C@H](N)C3)n2)C1 , report its measured MIC.
Result: < 16 µg/mL

* * *

Tested on: Escherichia coli (ATCC25922) or Staphylococcus aureus (ATCC25923)
Assay: Antibacterial MIC, microdilution method in Mueller-Hinton medium
Type: cell-based
Conditions: Escherichia coli, 18 h, read-out: Potency (MIC)
EXPERIMENTAL ENDPOINT: MIC

Worked cases, MIC given:
{"SMILES REPR": "N[C@@H]1C[C@H](N)CN(c2nc(Nc3ccc4c(c3)-c3ccccc3C4=O)nc(N3C[C@@H](N)C[C@@H](O)C3)n2)C1", "MIC": "< 16 µg/mL"}
{"SMILES REPR": "N[C@@H]1C[C@H](N)CN(c2nc(Nc3ccc(C(=O)CC(=O)Nc4ccc(Cl)cc4F)cc3)nc(N3C[C@H](N)C[C@H](N)C3)n2)C1", "MIC": "< 16 µg/mL"}
{"SMILES REPR": "Cc1cc(=O)oc2cc(Nc3nc(N4C[C@H](N)C[C@H](N)C4)nc(N4C[C@H](CN)C[C@H](CN)C4)n3)ccc12", "MIC": "> 64 µg/mL"}
{"SMILES REPR": "Cc1cc(=O)oc2cc(Nc3nc(N4C[C@H](N)C[C@H](N)C4)nc(N4C[C@@H](N)[C@@H](N)C4)n3)ccc12", "MIC": "> 64 µg/mL"}
{"SMILES REPR": "N[C@@H]1C[C@H](N)CN(c2nc(Nc3ccc(NS(=O)(=O)CCCCl)c(O)c3)nc(N3C[C@H](N)C[C@H](N)C3)n2)C1", "MIC": "> 64 µg/mL"}
{"SMILES REPR": "Cc1ccc(C(=O)Nc2ccc(Nc3nc(N4C[C@H](N)C[C@H](N)C4)nc(N4C[C@H](N)C[C@H](N)C4)n3)c(C)c2)c(O)c1", "MIC": "< 64 µg/mL"}

Ask: // MIC lookup, key: N[C@@H]1C[C@H](N)CN(c2nc(Nc3ccc(C(=O)CC(=O)Nc4ccc(F)c(F)c4)cc3)nc(N3C[C@H](N)C[C@H](N)C3)n2)C1
Result: < 16 µg/mL

* * *

Tested on: Escherichia coli (ATCC25922) or Staphylococcus aureus (ATCC25923)
Assay: Antibacterial MIC, microdilution method in Mueller-Hinton medium
Format: cell-based
Conditions: Escherichia coli, 18 h, MIC in E. coli or S. aureus; two-fold serial dilutions 64 to 0.5 μg/ml in duplicate; 18 hours of incubation at 35° C.; read-out: Potency (MIC)
Parameter MIC: see the listing below.

Sample answers from the record:
{"COMPOUND": "Cl.Oc1cccc(C2CCN(c3nc(N4CCCCC4)nc(N4CCCCC4)n3)CC2)c1", "MIC": "> 64 µg/mL"}
{"COMPOUND": "COc1ccc(Nc2ccc(NC(=O)CC(=O)c3ccc(Nc4nc(N5C[C@H](N)C[C@H](N)C5)nc(N5C[C@H](N)C[C@H](N)C5)n4)cc3)cc2)cc1", "MIC": "< 16 µg/mL"}

Ask: Notebook entry, Escherichia coli (ATCC25922) or Staphylococcus aureus (ATCC25923) assay: MIC of N[C@@H]1C[C@H](N)CN(c2nc(NC3CCCNC3)nc(N3C[C@H](N)C[C@H](N)C3)n2)C1 (stereo partly drawn) = ?
Result: > 64 µg/mL

Ask: What do we get for Cl.O=C(CC(=O)c1ccc(Nc2nc(N3CCCCC3)nc(N3CCCCC3)n2)cc1)Nc1cccc(Br)c1 ?
Result: < 16 µg/mL

Ask: Also, Cl.O=C(Nc1ccc(Nc2nc(N3CCCCC3)nc(N3CCCC3)n2)cc1O)c1ccc(Cl)cc1 please.
Result: < 64 µg/mL

Ask: What about this compound? N[C@@H]1C[C@H](N)CN(c2nc(Nc3ccc(NC(=O)C(F)(F)F)cc3)nc(N3C[C@H](N)C[C@H](N)C3)n2)C1
Result: > 64 µg/mL

Ask: Try this compound too: CC(C)(C)C(=O)Nc1ccc(Nc2nc(N3CCCCC3)nc(N3CCCCC3)n2)cc1O.Cl
Result: < 64 µg/mL

Ask: Consider next the compound NC1CCN(c2nc(N3C[C@H](N)C[C@H](N)C3)nc(N3C[C@H](N)C[C@H](N)C3)n2)CC1 in the same way.
Result: > 64 µg/mL

* * *

Tested on: Escherichia coli (ATCC25922) or Staphylococcus aureus (ATCC25923)
Test: Antibacterial MIC, microdilution method in Mueller-Hinton medium
Format: cell-based
Settings: Escherichia coli, 18 h, read-out: Potency (MIC)
Documented MIC across a set of compounds

Solved cases (4 shown):
{"SMILES REPR": "N[C@@H]1C[C@H](N)CN(c2nc(Nc3ccc(C(=O)N4CCNC(=O)C4)c(O)c3)nc(N3C[C@H](N)C[C@H](N)C3)n2)C1", "MIC": "> 64 µg/mL"}
{"SMILES REPR": "N[C@@H]1C[C@H](N)CN(c2nc(Nc3ccc(NC(=O)CO)cc3)nc(N3C[C@H](N)C[C@H](N)C3)n2)C1", "MIC": "> 64 µg/mL"}
{"SMILES REPR": "N[C@@H]1C[C@H](N)CN(c2nc(NNc3ccccc3F)nc(N3C[C@H](N)C[C@H](N)C3)n2)C1", "MIC": "> 64 µg/mL"}
{"SMILES REPR": "NC[C@@H]1C[C@H](CN)CN(c2nc(Nc3ccc(NC(=O)c4ccc(Cl)cc4)c(O)c3)nc(N3C[C@H](N)C[C@H](N)C3)n2)C1", "MIC": "< 16 µg/mL"}

Ask: Tell me the measured MIC of N[C@@H]1C[C@H](N)CN(c2cc(Nc3ccc(NC(=O)c4ccc5ccccc5c4O)cc3)nc(N3C[C@H](N)C[C@H](N)C3)n2)C1 , please.
Result: < 16 µg/mL

Ask: Consider next the compound CCCCCC(=O)Nc1ccc(Nc2nc(N3C[C@H](N)C[C@H](N)C3)nc(N3C[C@H](N)C[C@H](N)C3)n2)cc1O in the same way.
Result: < 16 µg/mL

Ask: What do we get for Cc1ccc(S(=O)(=O)Nc2ccccc2Nc2nc(N3C[C@H](N)C[C@H](N)C3)nc(N3C[C@H](N)C[C@H](N)C3)n2)cc1 ?
Result: > 64 µg/mL
